Assay: Permeability of the compound at 100 ug/ml after 18 hrs by PAMPA-BBB assay
EXPERIMENTAL_READOUT: Papp at 18 h, 100 ug/ml (×10⁻⁶ cm/s)

{"STRUCTURE": "O=C1/C(=C/c2ccc(N3CCCCC3)cc2)Oc2cc(O)cc(O)c21", "EXPERIMENTAL_READOUT": "Papp at 18 h, 100 ug/ml", "RECORDED_NUMBER": 6.68}
{"STRUCTURE": "COc1cc(O)c2c(c1)O/C(=C\\c1ccc(N3CCCCC3)cc1)C2=O", "EXPERIMENTAL_READOUT": "Papp at 18 h, 100 ug/ml", "RECORDED_NUMBER": 7.24}

----------
Biological target: Amine oxidase [flavin-containing] B (Homo sapiens, UniProt P27338)
Sequence (P27338 whole entry): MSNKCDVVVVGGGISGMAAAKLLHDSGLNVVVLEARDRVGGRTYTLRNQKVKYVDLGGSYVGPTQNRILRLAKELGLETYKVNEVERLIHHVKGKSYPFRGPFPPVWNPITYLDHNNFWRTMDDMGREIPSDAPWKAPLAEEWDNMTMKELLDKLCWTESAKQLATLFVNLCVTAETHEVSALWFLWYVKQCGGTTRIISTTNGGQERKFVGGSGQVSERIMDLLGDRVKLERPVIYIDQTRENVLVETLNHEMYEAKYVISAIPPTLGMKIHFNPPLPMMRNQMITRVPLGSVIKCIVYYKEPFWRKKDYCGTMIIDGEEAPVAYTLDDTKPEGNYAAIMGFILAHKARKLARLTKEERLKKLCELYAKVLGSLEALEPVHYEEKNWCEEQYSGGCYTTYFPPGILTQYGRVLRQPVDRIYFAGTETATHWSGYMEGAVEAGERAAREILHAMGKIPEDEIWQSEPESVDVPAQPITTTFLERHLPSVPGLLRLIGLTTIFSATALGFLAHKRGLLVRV
Assay: Inhibition of human recombinant MAO-B at 10 uM using kynuramine as substrate after 30 mins by fluorescence spectrophotometry
Conditions: 0.5 h
EXPERIMENTAL_READOUT: inhibition at 10 µM (%)

{"MOLECULE": "CN(C)c1ccccc1/C=C1\\Oc2cc(O)cc(O)c2C1=O", "UNIT_INFO": "%", "inhibition at 10 µM": 0.88}
{"MOLECULE": "CN(C)c1ccc(CC2Oc3cc(O)cc(O)c3C2=O)cc1 (centres undefined)", "UNIT_INFO": "%", "inhibition at 10 µM": 27.2}

[P] O=C1c2c(O)cc(O)cc2OC1Cc1ccc(N2CCOCC2)cc1 (centres undefined)
[Q] CN(C)c1ccc(/C=C2\Oc3cc(N(C)C)cc(O)c3C2=O)cc1
Task item: Thinking about recorded inhibition at 10 µM values, which is higher, P or Q ? // respond with label for picked entry
Reply: Q
(Q: 13.5%, P: 8.7%)

----------
Molecular target: Amine oxidase [flavin-containing] A (Homo sapiens, UniProt P21397)
Sequence (P21397 whole entry): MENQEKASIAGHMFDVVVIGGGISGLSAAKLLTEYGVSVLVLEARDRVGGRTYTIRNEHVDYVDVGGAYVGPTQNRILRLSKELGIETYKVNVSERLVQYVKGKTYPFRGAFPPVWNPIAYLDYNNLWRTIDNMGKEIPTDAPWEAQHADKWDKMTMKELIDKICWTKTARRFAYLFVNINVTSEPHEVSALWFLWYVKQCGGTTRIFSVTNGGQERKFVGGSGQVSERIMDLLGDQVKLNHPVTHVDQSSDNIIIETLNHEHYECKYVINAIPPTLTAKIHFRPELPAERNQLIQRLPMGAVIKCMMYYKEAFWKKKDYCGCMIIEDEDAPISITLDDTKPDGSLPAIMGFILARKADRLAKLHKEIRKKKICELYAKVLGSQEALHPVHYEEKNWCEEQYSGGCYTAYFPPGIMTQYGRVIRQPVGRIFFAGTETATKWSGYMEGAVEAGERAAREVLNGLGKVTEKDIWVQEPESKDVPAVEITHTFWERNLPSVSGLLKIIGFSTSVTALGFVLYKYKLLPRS
Assay: Inhibition of human recombinant MAO-A at 10 uM using kynuramine as substrate after 30 mins by fluorescence spectrophotometry
Settings: 0.5 h
EXPERIMENTAL_READOUT: inhibition at 10 µM (%)

// below: answered molecules
{"MOLECULE": "COc1cc(O)c2c(c1)O/C(=C\\c1ccc(N3CCCCC3)cc1)C2=O", "inhibition at 10 µM (%)": 18.3}
{"MOLECULE": "COc1cc(O)c2c(c1)O/C(=C\\c1ccc(N(C)C)cc1)C2=O", "inhibition at 10 µM (%)": 20.7}
{"MOLECULE": "CN(C)c1ccccc1/C=C1\\Oc2cc(O)cc(O)c2C1=O", "inhibition at 10 µM (%)": 13.5}
{"MOLECULE": "COc1cc(O)c2c(c1)O/C(=C\\c1ccc(N3CCOCC3)cc1)C2=O", "inhibition at 10 µM (%)": 18.4}
{"MOLECULE": "CN1CCN(c2ccc(/C=C3\\Oc4cc(O)cc(O)c4C3=O)cc2)CC1", "inhibition at 10 µM (%)": 15.8}

[a] O=C1c2c(O)cc(O)cc2OC1Cc1ccc(N2CCOCC2)cc1 (stereo not drawn)
[b] CN(C)c1ccc(CC2Oc3cc(O)cc(O)c3C2=O)cc1 (stereo not drawn)
Task item: Thinking about recorded inhibition at 10 µM values, which is higher, a or b ? // respond with label for picked entry
Reply: b
(b: 23.5%, a: 13.9%)

----------
Biological target: Amyloid-beta precursor protein (Homo sapiens)
Sequence (P05067 whole entry): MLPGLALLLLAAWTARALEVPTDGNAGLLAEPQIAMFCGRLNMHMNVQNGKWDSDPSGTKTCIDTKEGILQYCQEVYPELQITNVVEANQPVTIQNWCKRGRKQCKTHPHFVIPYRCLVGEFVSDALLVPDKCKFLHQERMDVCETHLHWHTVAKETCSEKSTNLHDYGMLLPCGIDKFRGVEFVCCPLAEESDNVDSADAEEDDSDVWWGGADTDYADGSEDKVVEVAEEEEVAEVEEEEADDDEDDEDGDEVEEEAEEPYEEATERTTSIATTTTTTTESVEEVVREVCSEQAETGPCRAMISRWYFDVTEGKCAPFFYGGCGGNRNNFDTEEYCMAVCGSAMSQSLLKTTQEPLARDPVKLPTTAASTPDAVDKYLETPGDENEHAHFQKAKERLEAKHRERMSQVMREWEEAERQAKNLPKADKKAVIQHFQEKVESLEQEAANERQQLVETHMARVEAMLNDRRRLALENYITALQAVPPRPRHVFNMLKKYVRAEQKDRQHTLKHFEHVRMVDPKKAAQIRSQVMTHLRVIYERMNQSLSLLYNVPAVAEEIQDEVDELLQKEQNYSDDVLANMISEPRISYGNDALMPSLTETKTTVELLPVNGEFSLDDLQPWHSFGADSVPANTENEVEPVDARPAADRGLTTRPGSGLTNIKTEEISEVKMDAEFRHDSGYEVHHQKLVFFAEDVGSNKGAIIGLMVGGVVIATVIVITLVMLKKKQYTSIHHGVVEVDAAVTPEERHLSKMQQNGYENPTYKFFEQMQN
Test: Inhibition of Cu2+-induced amyloid beta (1 to 42) (unknown origin) aggregation at 25 uM after 24 hrs by thioflavin-T fluorescence method
EXPERIMENTAL_READOUT: inhibition (%)

// below: answered compounds
{"STRUCTURE": "CN(C)c1ccccc1/C=C1\\Oc2cc(O)cc(O)c2C1=O", "SYSTEM_TESTED": "Amyloid-beta precursor protein (Homo sapiens)", "inhibition / %": 90.1}
{"STRUCTURE": "O=C1/C(=C/c2ccc(N3CCCCC3)cc2)Oc2cc(O)cc(O)c21", "SYSTEM_TESTED": "Amyloid-beta precursor protein (Homo sapiens)", "inhibition / %": 84}
{"STRUCTURE": "CCN(C)c1ccc(/C=C2\\Oc3cc(O)cc(O)c3C2=O)cc1", "SYSTEM_TESTED": "Amyloid-beta precursor protein (Homo sapiens)", "inhibition / %": 86.6}

[P] COc1cc(O)c2c(c1)O/C(=C\c1ccc(N3CCCCC3)cc1)C2=O
[Q] COc1cc(O)c2c(c1)O/C(=C\c1ccc(N(C)C)cc1)C2=O
Task item: Decide: P or Q , by lowest recorded inhibition. // respond with label for picked entry
Reply: P
